# TARGET: 5-HT2A receptor (Homo sapiens)
# Construct: full length clones of 5-HT2A, 5-HT2B and 5-HT2C receptor were prepared from CHO-K1 cells; expressed in transfected cells; host or cells: CHO-K1
# Sequence (P28223 whole entry): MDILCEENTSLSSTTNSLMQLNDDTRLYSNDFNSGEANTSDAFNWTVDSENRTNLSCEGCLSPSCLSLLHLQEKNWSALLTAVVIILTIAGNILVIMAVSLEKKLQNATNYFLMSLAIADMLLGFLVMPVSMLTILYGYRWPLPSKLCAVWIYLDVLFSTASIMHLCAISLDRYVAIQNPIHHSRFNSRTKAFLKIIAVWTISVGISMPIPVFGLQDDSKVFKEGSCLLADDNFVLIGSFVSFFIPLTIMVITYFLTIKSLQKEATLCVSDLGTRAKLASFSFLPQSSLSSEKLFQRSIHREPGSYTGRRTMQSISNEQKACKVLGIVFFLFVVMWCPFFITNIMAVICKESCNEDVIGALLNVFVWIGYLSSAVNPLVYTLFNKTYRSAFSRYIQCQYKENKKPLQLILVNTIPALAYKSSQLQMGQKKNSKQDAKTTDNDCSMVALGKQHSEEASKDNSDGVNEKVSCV
# TEST: Displacement of radioligand binding, 5-HT2A
# TEST_PARAMETERS: [^3H]-ketanserin; human recombinant CHO-K1 cells
METRIC_NAME: pIC50
Give only the number. pIC50 is defined as minus log10 of concentration in molar units.

For record Cn1c(=O)c2c(ncn2CCN2CCN(c3ccccc3Cl)CC2)n(C)c1=O the listed pIC50 is 6.47

====

# TARGET: 5-HT2B receptor (Homo sapiens, UniProt P41595)
# Construct: full length clones of 5-HT2A, 5-HT2B and 5-HT2C receptor were prepared from CHO-K1 cells
# Sequence (P41595 whole entry): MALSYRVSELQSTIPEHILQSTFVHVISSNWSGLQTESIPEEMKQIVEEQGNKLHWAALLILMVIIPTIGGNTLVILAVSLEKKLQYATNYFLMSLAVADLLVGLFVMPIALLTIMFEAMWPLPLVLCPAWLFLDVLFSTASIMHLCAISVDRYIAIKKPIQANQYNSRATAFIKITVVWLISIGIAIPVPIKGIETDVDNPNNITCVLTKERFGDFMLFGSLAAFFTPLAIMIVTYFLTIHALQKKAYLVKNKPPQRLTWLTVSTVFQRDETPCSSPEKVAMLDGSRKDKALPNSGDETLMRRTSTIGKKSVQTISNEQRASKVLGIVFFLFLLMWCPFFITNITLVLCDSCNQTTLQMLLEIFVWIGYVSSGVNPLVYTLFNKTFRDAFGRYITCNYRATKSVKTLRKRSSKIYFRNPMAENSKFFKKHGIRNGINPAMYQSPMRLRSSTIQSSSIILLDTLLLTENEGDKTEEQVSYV
# TEST: Displacement of radioligand binding, 5-HT2B
# TEST_PARAMETERS: [^3H]-LSD; human recombinant CHO-K1 cells; Cheng-Prusoff
METRIC_NAME: Ki (nM)
Respond with the bare value in nM.

For this molecule ( Cn1c(=O)c2c(ncn2CCN2CCN(c3ccccc3Cl)CC2)n(C)c1=O [KMUP-1] ), measured Ki is 25.4

====

# TARGET: 5-HT2C receptor (Homo sapiens, UniProt P28335)
# Construct: full length clones of 5-HT2A, 5-HT2B and 5-HT2C receptor were prepared from CHO-K1 cells
# Sequence (P28335 33-458): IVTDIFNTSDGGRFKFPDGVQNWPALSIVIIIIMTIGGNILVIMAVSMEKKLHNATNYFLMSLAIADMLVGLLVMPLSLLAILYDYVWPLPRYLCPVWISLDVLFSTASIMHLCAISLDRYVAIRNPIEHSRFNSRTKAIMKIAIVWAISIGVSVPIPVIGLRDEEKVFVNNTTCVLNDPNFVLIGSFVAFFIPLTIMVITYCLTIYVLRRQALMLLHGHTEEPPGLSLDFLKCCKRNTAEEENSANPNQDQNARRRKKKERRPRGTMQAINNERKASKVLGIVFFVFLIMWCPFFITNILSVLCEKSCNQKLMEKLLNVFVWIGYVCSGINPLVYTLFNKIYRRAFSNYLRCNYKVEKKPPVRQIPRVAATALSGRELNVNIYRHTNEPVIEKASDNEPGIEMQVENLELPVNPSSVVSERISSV
# TEST: Displacement of radioligand binding, 5-HT2C
# TEST_PARAMETERS: [^3H]-mesulergine; human recombinant CHO-K1 cells
METRIC_NAME: IC50 (µM)
Give the number; µM is assumed, so skip it.

Memo: Cn1c(=O)c2c(ncn2CCN2CCN(c3ccccc3Cl)CC2)n(C)c1=O , reported IC50: 0.408

====

# TARGET: 5-HT2C receptor (Homo sapiens)
# Construct: full length clones of 5-HT2A, 5-HT2B and 5-HT2C receptor were prepared from CHO-K1 cells
# Sequence (P28335 33-458): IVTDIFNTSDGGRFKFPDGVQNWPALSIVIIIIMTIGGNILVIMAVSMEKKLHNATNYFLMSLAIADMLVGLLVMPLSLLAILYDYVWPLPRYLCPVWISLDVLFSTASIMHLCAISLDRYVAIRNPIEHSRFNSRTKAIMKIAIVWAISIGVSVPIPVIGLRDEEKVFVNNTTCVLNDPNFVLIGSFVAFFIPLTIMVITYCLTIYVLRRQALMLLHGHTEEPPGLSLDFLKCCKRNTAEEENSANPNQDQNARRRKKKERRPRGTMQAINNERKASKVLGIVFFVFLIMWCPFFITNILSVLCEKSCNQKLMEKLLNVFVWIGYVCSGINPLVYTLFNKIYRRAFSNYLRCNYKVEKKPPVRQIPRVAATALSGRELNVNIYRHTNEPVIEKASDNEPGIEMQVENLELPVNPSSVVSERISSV
# TEST: Displacement of radioligand binding, 5-HT2C
# TEST_PARAMETERS: [^3H]-mesulergine; human recombinant CHO-K1 cells; Cheng-Prusoff
METRIC_NAME: Ki (nM)
All answers are understood in nM, so give the number only.

Consider Cn1c(=O)c2c(ncn2CCN2CCN(c3ccccc3Cl)CC2)n(C)c1=O . Its measured Ki is 214

====

# Tested on: BALF cells
# TEST: Ovalbumine model, bronchoalveolar lavage cell counts
# Assay type: in vivo, BALB/c mice
# TEST_PARAMETERS: inhalation 5 mM; OVA 2.4 ± 0.3
METRIC_NAME: Lymphocyte

Looking up Cl.Cn1c(=O)c2c(ncn2CCN2CCN(c3ccccc3Cl)CC2)n(C)c1=O [KMUP-1 HCl] , I found its Lymphocyte recorded as 1.5 ± 0.3 × 10^4 cell/ml

Per the records, this compound ( Cl.Cn1c(=O)c2c(ncn2CCN2CCN(c3ccccc3[N+](=O)[O-])CC2)n(C)c1=O [KMUP-4 HCl] ) has Lymphocyte equal to 1.6 ± 3.4 × 10^4 cell/ml

response.value for COc1ccccc1N1CCN(CCn2cnc3c2c(=O)n(C)c(=O)n3C)CC1.Cl [KMUP-2 HCl] (field: Lymphocyte) = 1.2 ± 3.7 × 10^4 cell/ml
